target: URAT1 (Homo sapiens (Human), UniProt Q96S37); assay: IC50 for inhibition of the test compounds on URAT1 (nine concentration points, 0.001-10 μM); settings: HEK293 cells stably expressing URAT1; [8-14C] uric acid uptake; nine concentrations 0.001-10 μM
Sequence (Q96S37 whole entry): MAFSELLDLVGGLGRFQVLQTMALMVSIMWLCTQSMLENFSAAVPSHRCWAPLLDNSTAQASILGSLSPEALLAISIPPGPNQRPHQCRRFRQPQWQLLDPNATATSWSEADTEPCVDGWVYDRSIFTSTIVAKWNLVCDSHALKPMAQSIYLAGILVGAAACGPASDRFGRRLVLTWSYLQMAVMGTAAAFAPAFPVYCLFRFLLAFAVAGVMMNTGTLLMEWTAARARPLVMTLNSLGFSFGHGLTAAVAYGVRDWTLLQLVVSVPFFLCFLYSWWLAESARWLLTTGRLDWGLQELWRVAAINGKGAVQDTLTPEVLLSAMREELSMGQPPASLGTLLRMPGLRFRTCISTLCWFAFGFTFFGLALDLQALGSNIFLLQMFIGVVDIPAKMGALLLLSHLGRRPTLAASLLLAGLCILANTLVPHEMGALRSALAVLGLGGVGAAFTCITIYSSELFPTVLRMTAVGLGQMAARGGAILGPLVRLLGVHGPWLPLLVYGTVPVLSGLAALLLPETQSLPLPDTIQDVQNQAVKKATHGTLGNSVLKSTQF
measure-name: IC50 (nM)

Solved entries (count: 4):
| smiles-structure | endpoint-value |
| --- | --- |
| O=C(O)CCc1nnc(Br)n1Cc1ccc(Br)c2ccccc12 | 83 |
| CC(C)c1ccc(Cn2c(Br)nnc2SCC(=O)O)c2ccccc12 | 484 |
| CC(C)c1ccc(Cn2c(Br)nnc2CC(C)(C)C(=O)O)c2ccccc12 | 487 |
| O=C(O)CSc1nnc(Cl)n1Cc1ccc(C2CC2)c2ccccc12 | 418 |

[I] CC(C)c1ccc(Cn2c(Br)nnc2CCC(=O)O)c2ccccc12
[II] CC(C)(Sc1nnc(Cl)n1Cc1ccc(C2CC2)c2ccccc12)C(=O)O
Query block: Hello, I am sorting some records. Could you say if I or II has the smaller IC50 value? To answer, give the label that identifies your chosen option.
Result block: I
(I: 381 nM, II: 886 nM)

src = patent US10584104B2
